- assay-overview: qHTS assay to identify small molecule agonists of the estrogen related receptor signaling pathway with the pleiotropic PPARgamma coactivator (PGC) from Tox21 10K library (AID 1224842); also: % is scaled to controls: 0 for no effect and ±100 for the full control effect; nearly all actives have a fitted effect of over 15% in size
- experimental-setup: PGC/ERR reporter cell line, luciferase ONE-Glo, 18 h; series mostly up to 92.4 µM
Inconclusive results are not listed. Calls of active or inactive are those of the source. Calls follow the shape of the dose curve; as a rule, active = well fitted activation curve with a large enough effect in the repeat runs; inconclusive = weak or mixed curves, or effect the other way; inactive = no such curve, though single readings can be large or run the other way.
measured-metric: activation

Known results for molecules:
*Q* Look up activation for this molecule: OCCOc1ccc(OCCO)cc1
*A* inactive

*Q* Look up activation for this molecule: CCCC(=O)O[C@]1(C(=O)CO)CC[C@H]2[C@@H]3CCC4=CC(=O)CC[C@]4(C)[C@H]3[C@@H](O)C[C@@]21C
*A* inactive

*Q* Look up activation for this molecule: C/C=C(\C)C#N
*A* inactive

*Q* Look up activation for this molecule: CCSC(=O)N(CC(C)C)CC(C)C
*A* inactive

*Q* Look up activation for this molecule: O=c1[nH]c(=O)n([C@H]2C[C@H](O)[C@@H](CO)O2)cc1I
*A* inactive

New cases:
*Q* Look up activation for this molecule: CCC(C)S (stereo not drawn)
*A* 0.822% [at 3.27 µM] (inactive)

*Q* Look up activation for this molecule: Brc1c(NC2=NCCN2)ccc2nccnc12
*A* inactive

*Q* Look up activation for this molecule: CO[C@]12C[C@@H](COC(=O)c3cncc(Br)c3)CN(C)[C@@H]1Cc1cn(C)c3cccc2c13
*A* inactive

---

- assay-overview: qHTS assay to identify small molecule antagonists of the glucocorticoid receptor (GR) signaling pathway - cell viability counter screen (AID 720693); also: % is scaled to controls: 0 for no effect and ±100 for the full control effect; nearly all actives have a fitted effect of over 55% in size
- experimental-setup: GR-bla HeLa viability, CellTiter-Glo luminescence, 18 h, with 5 nM dexamethasone present; series mostly up to 58.5 µM
Records with an inconclusive call do not appear. Activity calls are given as the source filed them. The call rests on the fitted dose curve; in most records, active means well fitted cell-killing curve with a large enough effect in the repeat runs; inconclusive means weak or mixed curves, or effect the other way; inactive means no such curve, though single readings can be large or run the other way.
measured-metric: viability change, negative = cytotoxic

Known results for molecules:
*Q* Look up viability change, negative = cytotoxic for this molecule: Nc1c[n+](N2CCOCC2)no1
*A* inactive

*Q* Look up viability change, negative = cytotoxic for this molecule: OC[C@]1(O)OC[C@@H](O)[C@H](O)[C@@H]1O
*A* inactive

*Q* Look up viability change, negative = cytotoxic for this molecule: CCN(Cc1ccncc1)C(=O)C(CO)c1ccccc1 (stereo not drawn)
*A* inactive

*Q* Look up viability change, negative = cytotoxic for this molecule: CC(=O)CC(C)C
*A* inactive

*Q* Look up viability change, negative = cytotoxic for this molecule: CC(C)(CC(=O)O)C(=O)O
*A* inactive

New cases:
*Q* Look up viability change, negative = cytotoxic for this molecule: CC1=CC(C)C(C=O)CC1 (stereo not drawn)
*A* inactive

*Q* Look up viability change, negative = cytotoxic for this molecule: CN1C(=O)N(C)C(O)C1O (stereo not drawn)
*A* inactive

*Q* Look up viability change, negative = cytotoxic for this molecule: O=C(O)CCCc1ccccc1
*A* inactive

---

- assay-overview: A CellTox Green Cytotoxicity Assay to monitor cytotoxicity in HepG2 cells - 0 hour (AID 1224882); also: % is scaled to controls: 0 for no effect and ±100 for the full control effect; nearly all actives have a fitted effect of over 35% in size
- experimental-setup: CellTox Green fluorescence; series mostly up to 76.8 µM
Activity calls are given as the source filed them. Calls come from the whole dose curve; as a rule, active = well fitted activation curve with a large enough effect in the repeat runs; inconclusive = weak or mixed curves; inactive = flat fitted curve, though single readings scatter.
measured-metric: cytotoxicity

Known results for molecules:
*Q* Look up cytotoxicity for this molecule: COC(=O)c1cc(C(=O)OC)cc(S(=O)(=O)O)c1
*A* inactive

*Q* Look up cytotoxicity for this molecule: CN1N=C(C(N)=O)CCC1=O
*A* inactive

*Q* Look up cytotoxicity for this molecule: O=C(O)c1ccccc1OP(=O)(O)O
*A* inactive

*Q* Look up cytotoxicity for this molecule: OC1CCCCC1c1ccccc1 (stereo not drawn)
*A* inactive

*Q* Look up cytotoxicity for this molecule: CC(=O)c1ccccc1O
*A* inactive

*Q* Look up cytotoxicity for this molecule: N=C(N)c1ccc(OCCCOc2ccc(C(=N)N)cc2)cc1
*A* inactive

*Q* Look up cytotoxicity for this molecule: CC(=O)N(CC(O)CO)c1c(I)c(C(=O)NCCO)c(I)c(C(=O)NCC(O)CO)c1I (stereo not drawn)
*A* inactive

*Q* Look up cytotoxicity for this molecule: CC(C(=O)O)c1ccc(CC2CCCC2=O)cc1 (stereo not drawn)
*A* inactive

*Q* Look up cytotoxicity for this molecule: CC(=O)OCC(=O)[C@@]1(O)CCC2C3CCC4=CC(=O)CC[C@]4(C)C3[C@@H](O)C[C@@]21C (stereo partly drawn)
*A* inactive

*Q* Look up cytotoxicity for this molecule: CCOC(C)(C)C
*A* inactive

New cases:
*Q* Look up cytotoxicity for this molecule: Cc1cnc(NS(=O)(=O)c2ccc(N)cc2)nc1
*A* inactive

*Q* Look up cytotoxicity for this molecule: CCCc1cc(C(N)=S)ccn1
*A* inactive

*Q* Look up cytotoxicity for this molecule: CCCCNC(=O)NCCCC
*A* inactive

---

- assay-overview: qHTS assay to identify small molecule agonists of the retinoic acid receptor (RAR) signaling pathway (AID 1159553); also: % is scaled to controls: 0 for no effect and ±100 for the full control effect
- experimental-setup: C3RL4 RARE luciferase reporter, agonist, 6 h; series mostly up to 73.3 µM
- From the text: National Center for Advancing Translational Sciences [NCATS] NIH Chemical Genomics Center [NCGC] U.S. Environmental Protection Agency [EPA] National Institutes of Environmental Health Sciences [NIEHS] National Toxicology Program [NTP] […]
Results filed as inconclusive are left out. The source made the active and inactive calls. The call rests on the fitted dose curve; in most records, active means well fitted activation curve with a large enough effect in the repeat runs; inconclusive means weak or mixed curves, or effect the other way; inactive means no such curve, though single readings can be large or run the other way.
measured-metric: activation

*Q* Look up activation for this compound: Cn1c(N)c(N=O)c(=O)n(C)c1=O
*A* inactive

*Q* Look up activation for this compound: Nc1ccc(S(=O)(=O)Nc2ccnn2-c2ccccc2)cc1
*A* inactive

*Q* Look up activation for this compound: CC(=O)CC(C)C
*A* inactive

*Q* Look up activation for this compound: CC(C)(C)c1nnc(NS(=O)(=O)c2ccccc2)s1
*A* inactive

*Q* Look up activation for this compound: CC(=O)OCC(=O)[C@@]1(O)CCC2C3CCC4=CC(=O)CC[C@]4(C)C3[C@@H](O)C[C@@]21C (stereo partly drawn)
*A* inactive

New cases:
*Q* Look up activation for this compound: NC(=O)c1ccc(N)cc1
*A* inactive

*Q* Look up activation for this compound: FC1(F)C(F)(F)C(F)(F)C2(F)C(F)(F)C(F)(F)C(F)(F)C(F)(F)C2(F)C1(F)F (stereo not drawn)
*A* inactive

*Q* Look up activation for this compound: NS(=O)(=O)c1cc2c(cc1Cl)NC(C1CC3C=CC1C3)NS2(=O)=O (stereo not drawn)
*A* inactive

*Q* Look up activation for this compound: Cc1ccc(Cl)cc1Cl
*A* inactive

*Q* Look up activation for this compound: Cc1ccc(C#N)cc1
*A* inactive

---

- target-desc: Nuclear receptor subfamily 1 group I member 2 (Homo sapiens) (UniProt O75469)
- Sequence (O75469 whole entry, looked up): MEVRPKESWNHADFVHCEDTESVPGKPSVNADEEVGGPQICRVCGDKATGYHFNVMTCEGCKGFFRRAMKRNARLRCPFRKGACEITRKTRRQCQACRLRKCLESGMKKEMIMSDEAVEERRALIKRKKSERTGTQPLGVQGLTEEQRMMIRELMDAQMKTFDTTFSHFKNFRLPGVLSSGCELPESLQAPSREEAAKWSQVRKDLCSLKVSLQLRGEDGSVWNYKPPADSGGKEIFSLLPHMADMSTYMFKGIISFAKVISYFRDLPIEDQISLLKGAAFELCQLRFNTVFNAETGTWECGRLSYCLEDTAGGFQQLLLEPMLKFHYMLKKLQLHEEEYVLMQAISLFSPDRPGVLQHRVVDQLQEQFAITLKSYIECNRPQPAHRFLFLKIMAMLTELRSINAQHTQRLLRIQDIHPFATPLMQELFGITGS
- assay-overview: Human pregnane X receptor (PXR) small molecule agonists, qHTS assay (AID 1346982); also: nearly all actives have a fitted effect of over 35% in size; also: potency is read from the fitted curve at half-maximal effect; as to activation: % is scaled to controls: 0 for no effect and ±100 for the full control effect
- experimental-setup: PXR-Luc HepG2, CYP3A4 luciferase reporter, 24 h; series mostly up to 92.4 µM
- From the text: National Center for Advancing Translational Sciences [NCATS] NIH Chemical Genomics Center [NCGC] U.S. Environmental Protection Agency [EPA] National Institutes of Environmental Health Sciences [NIEHS] National Toxicology Program [NTP] The human pregnane X receptor (hPXR) regulates the expression of several drug metabolizing enzymes and induction of these proteins is a major mechanism for developing drug resistance in cancer. […]
Records with an inconclusive call do not appear. The source made the active and inactive calls. Calls follow the shape of the dose curve; as a rule, active = well fitted activation curve with a large enough effect in the repeat runs; inconclusive = weak or mixed curves; inactive = no such curve, though single readings can be large or run the other way.
measured-metric: Potency

Known results for molecules:
*Q* Look up Potency for this molecule: O=c1n(CCO)c(=O)n(CCO)c(=O)n1CCO
*A* inactive

*Q* Look up Potency for this molecule: CC(C)NC(=O)NC(C)C
*A* inactive

*Q* Look up Potency for this molecule: Oc1ccc(C2CNCCc3c2cc(O)c(O)c3Cl)cc1 (stereo not drawn)
*A* inactive

*Q* Look up Potency for this molecule: C=C[Si](OC(=C)C)(OC(=C)C)OC(=C)C
*A* inactive

*Q* Look up Potency for this molecule: Cc1[nH]c(=O)c(C#N)cc1-c1ccc2nccn2c1
*A* inactive

*Q* Look up Potency for this molecule: N#Cc1ccc(C2CCCc3cncn32)cc1 (stereo not drawn)
*A* inactive

New cases:
*Q* Look up Potency for this molecule: COC(=O)CC(C)=O
*A* inactive

*Q* Look up Potency for this molecule: O=C1CCCC(=O)C1
*A* inactive

*Q* Look up Potency for this molecule: CC(C)CNCC(C)C
*A* inactive

*Q* Look up Potency for this molecule: NS(=O)(=O)c1ccc(C(=O)O)cc1
*A* inactive

*Q* Look up Potency for this molecule: COc1ccc(CCN(C)CCCC(C#N)(c2cc(OC)c(OC)c(OC)c2)C(C)C)cc1OC (stereo not drawn)
*A* 4.73 µM (active)

*Q* Look up Potency for this molecule: CCSC(=O)N(CC(C)C)CC(C)C
*A* inactive

*Q* Look up Potency for this molecule: COc1c(N2C[C@@H]3CCCN[C@@H]3C2)c(F)cc2c(=O)c(C(=O)O)cn(C3CC3)c12
*A* inactive

Ref: PubChem BioAssay (Tox21)
